Target: recombinant rat GluN1/GluN2B (Rattus norvegicus, UniProt P35439+Q00960)
Construct: expressed in transfected cells; host or cells: Xenopus laevis oocytes (Ecocyte) injected with in vitro transcribed cRNA
Sequence (Q00960 27-1482, other chains not shown): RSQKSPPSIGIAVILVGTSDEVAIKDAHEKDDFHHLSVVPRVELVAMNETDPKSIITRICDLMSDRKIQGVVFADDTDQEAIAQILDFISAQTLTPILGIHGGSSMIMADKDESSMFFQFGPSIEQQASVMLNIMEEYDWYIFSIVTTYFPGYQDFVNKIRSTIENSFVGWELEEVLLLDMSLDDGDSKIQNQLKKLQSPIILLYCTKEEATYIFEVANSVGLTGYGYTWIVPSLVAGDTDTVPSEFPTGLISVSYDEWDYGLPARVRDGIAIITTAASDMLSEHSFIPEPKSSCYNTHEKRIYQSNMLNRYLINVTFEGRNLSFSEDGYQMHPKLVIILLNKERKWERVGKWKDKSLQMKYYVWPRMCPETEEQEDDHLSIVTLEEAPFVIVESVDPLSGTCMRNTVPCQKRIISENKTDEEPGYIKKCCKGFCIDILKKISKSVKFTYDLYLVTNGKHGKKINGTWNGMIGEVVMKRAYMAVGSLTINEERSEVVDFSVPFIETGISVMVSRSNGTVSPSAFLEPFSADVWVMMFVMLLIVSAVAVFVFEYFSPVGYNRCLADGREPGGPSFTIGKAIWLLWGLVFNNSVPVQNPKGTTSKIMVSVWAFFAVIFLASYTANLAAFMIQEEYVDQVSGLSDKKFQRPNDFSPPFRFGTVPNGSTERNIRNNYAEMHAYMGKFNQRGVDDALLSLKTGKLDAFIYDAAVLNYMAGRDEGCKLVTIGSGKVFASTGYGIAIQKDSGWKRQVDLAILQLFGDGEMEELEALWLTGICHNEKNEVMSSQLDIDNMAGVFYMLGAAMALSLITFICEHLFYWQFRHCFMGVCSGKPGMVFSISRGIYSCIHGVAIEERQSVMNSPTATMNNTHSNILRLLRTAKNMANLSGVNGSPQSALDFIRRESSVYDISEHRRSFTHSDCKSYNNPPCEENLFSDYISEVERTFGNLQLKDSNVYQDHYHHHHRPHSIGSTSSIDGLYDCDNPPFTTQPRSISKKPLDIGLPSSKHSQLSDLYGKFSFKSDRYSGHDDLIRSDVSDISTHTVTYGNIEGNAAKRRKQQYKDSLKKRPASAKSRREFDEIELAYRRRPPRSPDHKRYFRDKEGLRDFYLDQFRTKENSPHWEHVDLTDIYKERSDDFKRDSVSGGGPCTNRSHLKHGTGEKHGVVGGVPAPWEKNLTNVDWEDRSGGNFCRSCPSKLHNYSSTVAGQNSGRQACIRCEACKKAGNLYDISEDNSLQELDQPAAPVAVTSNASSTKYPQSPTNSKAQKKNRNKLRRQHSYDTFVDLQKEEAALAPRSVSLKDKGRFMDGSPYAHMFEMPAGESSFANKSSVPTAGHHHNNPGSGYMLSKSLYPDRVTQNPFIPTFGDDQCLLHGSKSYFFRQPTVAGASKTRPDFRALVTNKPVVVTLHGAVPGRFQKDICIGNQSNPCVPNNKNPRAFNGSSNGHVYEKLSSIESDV
Assay: Two-electrode voltage-clamp (TEVC) recordings in Xenopus laevis oocytes, GluN1/GluN2B
Type: cell-based
Details: fitted when potentiation at 30 μM exceeded 120%; Tables 3, 5-7; read-out: EC50 (max.) (μM %) GluN2B: fitted EC50
Readout label: EC50 (µM)
Express the result in µM but write the number alone.

Ask: // returns reported EC50 for input CCOc1ccc(OCC2c3ccc(OC(C)C)cc3CCN2C(=O)c2cccc(C(F)(F)F)c2)cc1 (stereo not shown)
Result: 2.5

Ask: // returns reported EC50 for input CCOc1ccc(OC[C@@H]2c3ccc(OC(C)C)cc3CCN2C(=O)c2cccc(C(F)(F)F)c2)cc1 [(S)-(−)-1180-92]
Result: 1.9

Others:
Ask: // returns reported EC50 for input CCOc1ccc(OC[C@@H]2c3ccc(OC(C)C)cc3CCN2C(=O)c2ccc(Cl)c(Cl)c2)cc1 [(S)-(−)-1180-103]
Result: 0.94
